Reference source: patent US20240247080A1

subjectOfTest: T1, human GIP receptor (human, UniProt P48546 22-466)
T1 sequence (looked up): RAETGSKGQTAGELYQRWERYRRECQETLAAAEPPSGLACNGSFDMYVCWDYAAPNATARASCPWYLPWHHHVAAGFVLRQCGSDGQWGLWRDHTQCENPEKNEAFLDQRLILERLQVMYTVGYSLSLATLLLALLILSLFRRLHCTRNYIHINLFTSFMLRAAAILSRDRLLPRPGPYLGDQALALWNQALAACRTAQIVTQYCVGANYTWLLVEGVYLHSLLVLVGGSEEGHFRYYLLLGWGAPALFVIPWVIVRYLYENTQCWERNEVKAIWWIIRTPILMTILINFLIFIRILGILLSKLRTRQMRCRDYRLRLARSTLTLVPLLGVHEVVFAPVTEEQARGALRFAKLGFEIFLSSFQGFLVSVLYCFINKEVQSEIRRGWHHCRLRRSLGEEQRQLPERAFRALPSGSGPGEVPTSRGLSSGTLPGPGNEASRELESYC
methodSummary: cell-based or functional assay
Starred links: 1 amine or outer side, 2 acyl side, 3 side chain; linkers in the order of their positions; H or OH if unused. Non-standard residues stand in square brackets, D forms with d. Groups on a side chain read outwards from the residue. No end group written: not given here. *: point of attachment. C18 diacid = O=C(O)CCCCCCCCCCCCCCCCC(=O)*; γGlu = O=C(O)[C@H](CCC(=O)[*:2])N[*:1]; εLys = N[C@@H](CCCCN[*:1])C(=O)[*:2]; AEEA = NCCOCCOCC(=O)O; Aib = CC(C)(N)C(=O)O
Please assign not fulfilled whenever EC50 CreLuc hGIPR 100% hP is at or above 0.8 nM, and fulfilled whenever it is below.

# binder, assignedLabel
records = [
    ("Y[Aib]EGTFTSDYSI[Aib]LEKQAQ[Aib]EFVEWLIK([AEEA-AEEA-γGlu-γGlu-γGlu-C18 diacid])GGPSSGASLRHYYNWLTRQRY-NH2 [Compound 171]", "not fulfilled"),
    ("Y[Aib]EGTFTSDYSI[Aib]LEKQAQ[Aib]AFVEWLIK([AEEA-AEEA-γGlu-γGlu-γGlu-γGlu-C18 diacid])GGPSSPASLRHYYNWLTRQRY-NH2 [Compound 158]", "not fulfilled"),
    ("Y[Aib]EGTFTSDYSI[Aib]LEKQAE[Aib]AFVQWLIK([AEEA-AEEA-γGlu-γGlu-γGlu-γGlu-C18 diacid])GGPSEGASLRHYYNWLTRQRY-NH2 [Compound 156]", "fulfilled"),
    ("Y[Aib]EGTFTSDYSI[Aib]LEKQAQ[Aib]AFVQWLIK([εLys-γGlu-γGlu-γGlu-γGlu-γGlu-C18 diacid])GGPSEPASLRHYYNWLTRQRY-NH2 [Compound 148]", "fulfilled"),
    ("YXEGTFTSDYSIXLEKQAQXAFVQWLIKGGPEEGASLRHYYNWLTRQRY (Aib at 2, 13, 20; K28 side chain: C20DA-gGlu-gGlu-gGlu-gGlu-gGlu-gGlu-eLys; C-terminal NH2) [Compound 89]", "not fulfilled"),
    ("YXEGTFTSDYSIXLEKQAQXEFVQWLIKGGPSEGASLRHYYNWLTRQRY (Aib at 2, 13, 20; K28 side chain: C18DA-gGlu-gGlu-gGlu-gGlu-gGlu-gGlu-eLys; C-terminal NH2) [Compound 153]", "not fulfilled"),
    ("Y[Aib]EGTFTSDYSI[Aib]LEKQAQ[Aib]AFVEWLIK([AEEA-AEEA-γGlu-γGlu-γGlu-C18 diacid])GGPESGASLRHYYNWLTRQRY-NH2 [Compound 166]", "fulfilled"),
    ("Y[Aib]EGTFTSDYSI[Aib]LEKQAQ[Aib]AFVEWLIK([εLys-γGlu-γGlu-γGlu-γGlu-γGlu-C18 diacid])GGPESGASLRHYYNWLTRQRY-NH2 [Compound 152]", "not fulfilled"),
    ("Y[Aib]EGTFTSDYSI[Aib]LEKQAE[Aib]AFVEWLIK([AEEA-AEEA-γGlu-γGlu-γGlu-γGlu-C18 diacid])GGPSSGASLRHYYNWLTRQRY-NH2 [Compound 150]", "not fulfilled"),
]
